Target: Human plasma kallikrein (human, UniProt P03952)
Experiment: enzyme inhibition of plasma kallikrein, substrate S2302, fit to the tight-binding equation (apparent Ki*)
endpoint: Ki (pM)
One number for each entry, in pM.

Consider the following illustrative entries.
binder: KALI-DY (designed binder) VREVCSEQAEDGHCRAAHPRWYFDVTEGKCAPFYYGGCGGNRNNFDTEEYCAAVCGSA
measure_unit: pM
Ki: 15
//
binder: KALI-EY (designed binder) VREVCSEQAEEGHCRAAHPRWYFDVTEGKCAPFYYGGCGGNRNNFDTEEYCAAVCGSA
measure_unit: pM
Ki: 980

Can you give me Ki for all of these, one by one?
1. KALI-E (designed binder) VREVCSEQAEEGHCRAAHPRWYFDVTEGKCAPFFYGGCGGNRNNFDTEEYCAAVCGSA
2. KALI-EV (designed binder) VREVCSEQAEEGHCRAAHPRWYFDVTEGKCAPFVYGGCGGNRNNFDTEEYCAAVCGSA

RESULT:
[103, 117]
